Target: Estrogen receptor (Homo sapiens)
Test: ERalpha ligand binders by competition, primary screen, cell-based, Cos7 ERalpha-GFP, flow cytometry (AID 1211);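 also: 0% = DMSO vehicle wells and 100% = no E2-Alexa633 signal left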
Conditions: fluorescent ligand competition, binding inhibition, at 0.1 µM, stronger effect = higher value
Let's look at some molecules and their measured inhibition of ligand binding.
The reply should contain only the number, in %.

| Molecule | Test Readout | Observed |
| --- | --- | --- |
| O=c1[nH]cnc2c1sc1nc3c(c(-c4ccc(Cl)cc4)c12)CCC3 | inhibition of ligand binding | 9 |
| Cc1ccc(S(=O)(=O)N2CCCCC2)cc1C(=O)Nc1ncn[nH]1 | inhibition of ligand binding | 7 |
| Cc1nn(-c2ccccc2)c(Cl)c1/C=N/Nc1ccc(S(=O)(=O)Nc2ccccc2C(=O)O)cc1[N+](=O)[O-] | inhibition of ligand binding | 12 |
| CC(C)(C)c1nnc2sc(SC/C(O)=C(\C#N)c3nc4ccccc4[nH]3)nn2c1=O | inhibition of ligand binding | 8 |
| CN(C)NC(=S)Nc1ccc2nc(-c3ccccn3)c(-c3ccccn3)nc2c1 | inhibition of ligand binding | 4 |
| Cc1ccc(C(=O)CSC2=C(C#N)C(c3ccco3)CC(=O)N2)c(C)c1 (centres undefined) | inhibition of ligand binding | 53 |
| C/C(N)=C(/C#N)C(=O)CSc1nnc(Cc2ccccc2F)n1N | inhibition of ligand binding | 3 |
| Nc1ccc(-n2cnc3cc([N+](=O)[O-])ccc32)cc1 | inhibition of ligand binding | 66 |

Look up inhibition of ligand binding of COc1ccccc1N1CCN(C(=O)c2ccc3nc(-c4ccco4)c(-c4ccco4)nc3c2)CC1 and report it.
82

Look up inhibition of ligand binding of O=C(C1c2ccccc2C(=O)N2CCc3ccccc3C12)N1CCN(Cc2ccccc2)CC1 (centres undefined) and report it.
12

Look up inhibition of ligand binding of Cc1c(Cl)cccc1NS(=O)(=O)c1ccc2c(c1)C1C=CCC1C(c1ccc(C(=O)O)cc1)N2 (centres undefined) and report it.
1

Look up inhibition of ligand binding of Cc1cccn2c(=O)c3cc(C(=O)O)n(C)c3nc12 and report it.
17

Look up inhibition of ligand binding of NC(=O)c1oc2ccccc2c1NC(=O)c1nc2ccccc2s1 and report it.
4

Look up inhibition of ligand binding of ON=C1/C(=N\O)CC2(C/C1=N/O)OCCO2 and report it.
48

Look up inhibition of ligand binding of CCN(CC)c1ccc(-c2nn3c(-c4ccccc4OC)nnc3s2)cc1 and report it.
25

Look up inhibition of ligand binding of CC(=O)N1c2ccc(Cl)cc2C2C=CCC2C1c1cccc2ccccc12 (centres undefined) and report it.
13

Look up inhibition of ligand binding of O=C(COC(=O)CC1CCCC1)Nc1cc2c(cc1Cl)C(=O)c1ccccc1C2=O and report it.
24

Look up inhibition of ligand binding of Oc1c(C=Nc2cccc3cccnc23)sc2ccccc12 and report it.
21

Look up inhibition of ligand binding of O=C(c1cc2ncc(Br)cn2n1)N1CCOCC1 and report it.
25

Look up inhibition of ligand binding of COCCNC(=O)c1c(N)n(/N=C/c2cccs2)c2nc3ccccc3nc12 and report it.
6

Look up inhibition of ligand binding of O=C(Nc1ccc2nn(-c3ccccc3)nc2c1)c1ccc2c(c1)OCO2 and report it.
44

Look up inhibition of ligand binding of O=C(c1cc2c(s1)CCC2)N1CCN(c2ccccc2)CC1 and report it.
70

Look up inhibition of ligand binding of CSC1=N/C(=C\c2ccc(Br)o2)C(=O)S1 and report it.
13

Look up inhibition of ligand binding of COC(=O)c1cnn2c(C(F)(F)F)cc(-c3ccco3)nc12 and report it.
32

Look up inhibition of ligand binding of COc1ccc(NC(=O)c2ccco2)cc1N and report it.
3

Look up inhibition of ligand binding of CN(C)CC(=O)N1c2ccccc2CCc2ccc(NC(=O)c3ccc(N)cc3)cc21 and report it.
41

Look up inhibition of ligand binding of Cc1oc2c(C)c(O)ccc2c(=O)c1-c1ccc2ccccc2n1 and report it.
70

Look up inhibition of ligand binding of Cn1nnnc1SCC(=O)Nc1nc(-c2ccccc2)c(-c2ccccc2)o1 and report it.
7

Look up inhibition of ligand binding of Cc1ccc(-c2nn3c(C)nnc3s2)cc1NC(=O)COc1ccc(Cl)cc1 and report it.
42
